Tested on: MIA PaCa-2
Test: Cytotoxicity against human MIA PaCa-2 cells assessed as inhibition of cell growth incubated for 3 days in glucose-containing medium by MTT assay
Assay type: functional, cell-based
Details: MIA PaCa-2, 72 h
measured-property: pIC50
For clarity, pIC50 is expressed as the negative log10 of concentration in mol/L.

[in] Fill in the blank: the reported pIC50 of CCCN(CCC)S(=O)(=O)c1ccc(S(=O)(=O)N2CCC[C@@H](C(=O)OCC)C2)cc1 is ____.
[out] 6.22

[in] Form field: reported pIC50 of CCN(CC)S(=O)(=O)c1ccc(S(=O)(=O)N2CCC[C@@H](C(=O)NC3CN(C(=O)NC(C)(C)C)C3)C2)cc1
[out] 5.85

[in] Endpoint output: pIC50 of CC(C)c1noc(C2CCN(C(=O)[C@@H]3CCCN(S(=O)(=O)c4ccc(S(=O)(=O)C(C)C)cc4)C3)CC2)n1 . Value?
[out] 7.70

[in] Look up pIC50: CCN(CC)S(=O)(=O)c1ccc(S(=O)(=O)N2CCC[C@@H](C(=O)N3CC4(CCN(C(=O)OC(C)(C)C)C4)C3)C2)cc1
[out] 5.89

[in] Sample CCN(CC)S(=O)(=O)c1ccc(S(=O)(=O)N2CCC[C@@H](C(=O)N3CCC(c4nc(C(C)C)no4)CC3)C2)cc1 — what was its pIC50?
[out] 7.52

[in] I have this molecule here, CCOC(=O)[C@@H]1CCCN(S(=O)(=O)c2ccc(S(=O)(=O)N(CC)CC)cc2C)C1 , and I need its recorded pIC50.
[out] 5.92

[in] Quick one: pIC50 for CCOC(=O)C1CN(S(=O)(=O)c2ccc(S(=O)(=O)N(CC)CC)cc2)C1 ?
[out] 6.10

[in] Look up pIC50: CCN(CC)S(=O)(=O)c1ccc(S(=O)(=O)N2CCC[C@@H](C(=O)N[C@@H]3CCN(C(=O)OC(C)(C)C)C3)C2)cc1
[out] 6.30

[in] What measured pIC50 goes with CC(C)c1noc(N2CCN(C(=O)[C@@H]3CCCN(S(=O)(=O)c4ccc(S(=O)(=O)NC(C)(C)C)cc4)C3)CC2)n1 ?
[out] 7.00

[in] Entry CCOC(=O)[C@@H]1CCCN(S(=N)(=O)c2ccc(S(=O)(=O)N(CC)CC)cc2)C1 (some centres not stated) : reported pIC50 = ?
[out] 5.33

[in] Which pIC50 is listed for CCN(CC)S(=O)(=O)c1ccc(S(=O)(=O)N2CCC[C@@H](C(=O)NC)C2)cc1 ?
[out] 5.70

[in] Look up pIC50: CCN(CC)S(=O)(=O)c1ccc(S(=O)(=O)N2CCC[C@@H](c3nc(C)no3)C2)cc1
[out] 6.15

[in] Need pIC50, item CCN(CC)S(=O)(=O)c1ccc(S(=O)(=O)N2CCC[C@@H](C(=O)N(C)C(C)C)C2)cc1
[out] 5.85

[in] Look up pIC50: CCOC(=O)[C@@H]1CCCN(S(=O)(=O)c2ccc(S(=O)(=O)N3CCCCC3)cc2)C1
[out] 6.00

====

Tested on: MIA PaCa-2
Assay: Cytotoxicity against human MIA PaCa-2 cells assessed as inhibition of cell growth incubated for 7 days in glucose-containing medium by MTT assay
Type: functional, cell-based
Settings: MIA PaCa-2, 168 h
measured-property: IC50 (nM)
Value expressed in nM; do not type the unit.

[in] Which IC50 is listed for CCOC(=O)[C@@H]1CCCN(S(=N)(=O)c2ccc(S(=O)(=O)N(CC)CC)cc2)C1 (some centres undefined) ?
[out] 12100

[in] Quick one: IC50 for CC(C)c1noc(N2CCN(C(=O)[C@@H]3CCCN(S(=O)(=O)c4ccc(S(=O)(=O)NC(C)(C)C)cc4)C3)CC2)n1 ?
[out] 300

[in] What does the data say about its IC50? Entry: CCN(CC)S(=O)(=O)c1ccc(S(=O)(=O)N2CCC[C@@H](C(=O)NC3CN(C(=O)NC(C)(C)C)C3)C2)cc1
[out] 3400

[in] Which measured IC50 value corresponds to CCOC(=O)[C@@H]1CCCN(S(=O)(=O)c2ccc(S(=O)(=O)N(CC)C(C)C)cc2)C1 ?
[out] 1000

====

Tested on: MIA PaCa-2
Assay: Cytotoxicity against human MIA PaCa-2 cells assessed as inhibition of cell growth incubated for 7 days in glucose-containing medium by MTT assay
Format: functional, cell-based
Details: MIA PaCa-2, 168 h
measured-property: pIC50
Just the number, please; pIC50 means minus log10 of the concentration in mol/L.

[in] Give pIC50 (MIA PaCa-2) of the following compound: CCC(CC)S(=O)(=O)c1ccc(S(=O)(=O)N2CCC[C@@H](C(=O)N3CCN(c4nc(C(C)C)no4)CC3)C2)cc1
[out] 7.30

[in] Request - read-out pIC50 | tested on MIA PaCa-2 | compound CCOC(=O)[C@@H]1CCCN(S(=O)(=O)c2ccc3cc(S(=O)(=O)N(CC)CC)ccc3c2)C1
[out] 5.13

[in] Field: pIC50 (MIA PaCa-2). Entry: CCN(CC)S(=O)(=O)c1ccc(S(=O)(=O)N2CCC[C@@H](C(=O)N(C)C(C)C)C2)cc1
[out] 5.21

[in] What is its pIC50 for MIA PaCa-2? Entry: CC(C)c1noc(N2CCN(C(=O)[C@@H]3CCCN(S(=O)(=O)c4ccc(S(=O)(=O)C5CCC5)cc4)C3)CC2)n1
[out] 7.15

[in] # value lookup — system MIA PaCa-2, readout pIC50, item CCN(CC)S(=O)(=O)c1ccc(S(=O)(=O)N2CCC[C@@H](c3cc(C)no3)C2)cc1
[out] 5.31

[in] What is its pIC50 for MIA PaCa-2? Entry: CCOC(=O)[C@@H]1CCCN(S(=O)(=O)c2ccc(S(=O)(=O)N(CC)CC)cn2)C1
[out] 5.89

[in] Param readout= pIC50; system= MIA PaCa-2; entry= CCOC(=O)[C@H]1CCN(S(=O)(=O)c2ccc(S(=O)(=O)N(CC)CC)cc2)C1 ; returns value.
[out] 4.53

[in] Fill in the recorded pIC50 for this compound, with MIA PaCa-2 as test system: CCOC(=O)[C@@H]1CCCN(S(=O)(=O)c2ccc(S(=O)(=O)N(CC)CC)cc2C)C1
[out] 5.29

[in] Find pIC50 (MIA PaCa-2) for the entry CCN(CC)S(=O)(=O)c1ccc(S(=O)(=O)N2CCC[C@@H](C(=O)N3CCC(c4nc(C(C)C)no4)CC3)C2)cc1
[out] 7.40

[in] API: value(readout=pIC50, system=MIA PaCa-2) for record CCN(CC)S(=O)(=O)c1ccc(S(=O)(=O)N2CCC[C@@H](C(=O)N3CCN(c4nc(C(C)C)no4)CC3)C2)cc1
[out] 7.30

[in] Form entry - test system: MIA PaCa-2; read-out: pIC50; compound: CCOC(=O)[C@@H]1CCCN(S(=O)(=O)c2ccc(S(=O)(=O)N(CC)CC)nc2)C1
[out] 5.25

[in] Requested read-out pIC50, target or system MIA PaCa-2, entry CCN(CC)S(=O)(=O)c1ccc(S(=O)(=O)N2CCC[C@@H](C(=O)NC3CC3)C2)cc1
[out] 5.34

[in] What pIC50 appears in the records for this compound with MIA PaCa-2? CCOC(=O)[C@@H]1CCN(S(=O)(=O)c2ccc(S(=O)(=O)N(CC)CC)cc2)C1
[out] 5.07

[in] Identify the measured pIC50 of CCN(CC)S(=O)(=O)c1ccc(S(=O)(=O)N2CCC[C@@H](C(=O)N3CCN(c4nnc(C(C)C)o4)CC3)C2)cc1 for MIA PaCa-2.
[out] 5.74

[in] # query: pIC50 | item CCN(CC)S(=O)(=O)c1ccc(S(=O)(=O)N2CCC[C@@H](C(=O)NC3CN(C(=O)C4CC4)C3)C2)cc1 | system: MIA PaCa-2
[out] 5.55

[in] Record CCN(CC)S(=O)(=O)c1ccc(S(=O)(=O)N2CCC[C@@H](C(=O)N[C@@H]3CCN(C(=O)OC(C)(C)C)C3)C2)cc1 : what is its pIC50 with MIA PaCa-2?
[out] 6.70

[in] What pIC50 appears in the records for this compound with MIA PaCa-2? CC(C)c1noc(N2CCN(C(=O)[C@@H]3CCCN(S(=O)(=O)c4ccc(S(=O)(=O)NC5CC5)cc4)C3)CC2)n1
[out] 6.00

[in] Write down the reported pIC50 of CCOC(=O)[C@@H]1CCCN(S(=O)(=O)c2ccc(S(=O)(=O)N3CCOCC3)cc2)C1 , test system: MIA PaCa-2.
[out] 4.63

[in] Hello, I am looking for reported pIC50 with MIA PaCa-2 for CCOC(=O)[C@@H]1CCCN(S(=O)(=O)c2ccc(S(=O)(=O)N(C)C)cc2)C1 . Could you help?
[out] 6.05

[in] Form field - read-out: pIC50; system: MIA PaCa-2; submitted item: CCOC(=O)[C@@H]1CCCN(S(=O)(=O)c2ccc(S(=O)(=O)N(CC)CC)cc2)C1
[out] 6.40

[in] Which measured pIC50 belongs to CC(C)c1noc(N2CCN(C(=O)[C@@H]3CCCN(S(=O)(=O)c4ccc(S(=O)(=O)NC5CCC5)cc4)C3)CC2)n1 , tested on MIA PaCa-2?
[out] 6.22

[in] Which measured pIC50 belongs to CCOC(=O)C12CC(CN(S(=O)(=O)c3ccc(S(=O)(=O)N(CC)CC)cc3)C1)C2 , tested on MIA PaCa-2?
[out] 6.00

[in] Lab note: need pIC50 for CCOC(=O)C1CCCCN1S(=O)(=O)c1ccc(S(=O)(=O)N(CC)CC)cc1 (centres undefined) on MIA PaCa-2, anyone have it?
[out] 4.61

[in] Field: pIC50 (MIA PaCa-2). Entry: CCOC(=O)[C@@H]1C[C@H](O)CN(S(=O)(=O)c2ccc(S(=O)(=O)N(CC)CC)cc2)C1 (relative stereo)
[out] 5.89

[in] // map CCN(CC)S(=O)(=O)c1ccc(S(=O)(=O)N2CCC[C@@H](c3nc(C)no3)C2)cc1 to recorded pIC50 (system: MIA PaCa-2)
[out] 5.39

[in] Tell me reported pIC50 for CCOC(=O)[C@@H]1CCCN(S(=O)(=O)c2ccc(S(=N)(=O)N(CC)CC)cc2)C1 (some centres undefined) , tested with MIA PaCa-2.
[out] 5.59

[in] Field: pIC50 (MIA PaCa-2). Entry: CCN(CC)S(=O)(=O)c1ccc(S(=O)(=O)N2CCC[C@@H](C(=O)NC3COC3)C2)cc1
[out] 5.64

[in] Identify the measured pIC50 of CCOC(=O)[C@@H]1CCC[C@H](S(=O)(=O)c2ccc(S(=O)(=O)N(CC)CC)cc2)C1 (relative stereo) for MIA PaCa-2.
[out] 4.67

[in] For MIA PaCa-2, provide pIC50 of CCCN(CCC)S(=O)(=O)c1ccc(S(=O)(=O)N2CCC[C@@H](C(=O)OCC)C2)cc1 please.
[out] 5.64
